- Tested on: HCC-2998 colon
- method_summary: NCI tumour cell line growth inhibition, 48 h
Recorded TGI values for a group of molecules are listed next.

Guide cases for TGI, answers given:
[[record]]
molecule = "C1COCCOCCOCCOCCO1.CC(=O)[CH-]C(C)=O.CC(=O)[CH-]C(C)=O.CC(=O)[CH-]C(C)=O.[V]"
measured_property = "TGI"
value_observed = "40.1 µM"

[[record]]
molecule = "Cc1nc2ccccc2n1Cc1nnc(N)o1"
measured_property = "TGI"
value_observed = "> 100 µM"

[[record]]
molecule = "COc1ccc(/C=C/NC=O)cc1"
measured_property = "TGI"
value_observed = "> 100 µM"

[[record]]
molecule = "OCC(O)C(O)C(O)/C=N/Nc1nc2ccccc2nc1-c1ccccc1 (stereo unspecified)"
measured_property = "TGI"
value_observed = "> 100 µM"

[[record]]
molecule = "Clc1ncc(Cl)c(Cl)n1"
measured_property = "TGI"
value_observed = "15.1 µM"


What TGI value was documented for this molecule, CCOC(=O)c1cc(C(=O)c2cc(OC)c(OC)c(OC)c2)n2ccccc12 ? > 100 µM

Now give it for NC1=Nc2cc(OCCCN3Cc4ccccc4C3)c(OCC3CC3)cc2C12CCCC2 too. 3.08 µM

Now give it for Cc1cccc(C)c1NC(=O)CCc1n[nH]c(=S)o1 too. > 100 µM

Now give it for CC(C)CN(CC(C)C)C(=O)C1CCCC[C@@H]1C(=O)O (stereo partly specified) too. > 100 µM

Now give it for NC1CC(=O)c2sccc21 (stereo unspecified) too. > 100 µM

Now give it for O=C(Nc1ccccc1)Nc1cccc(Oc2nnc(Cl)c3ccccc23)c1 too. 12.2 µM

---

- System: MALME-3M melanoma
- method_summary: NCI tumour cell line growth inhibition, 48 h; in the data active means GI50 below about 0.43 µM; inactive means the rest
*1 amine or outer side, *2 acyl side, *3 side chain or, on linkers, in order; H or OH if unused. Where a SMILES comes first, the peptide text is derived from it. [ ]: non-standard residue; d: D form. X56 = CC[C@H](C)[C@H](OC(=O)[C@@H](C)[C@@H](CC)N[*:1])C(=O)[*:2]; X32 = C[C@H](N[*:1])C(=O)C(C)(C)C(=O)[*:2]; NMeY = CN[C@@H](Cc1ccc(O)cc1)C(=O)O; NMeL = CN[C@@H](CC(C)C)C(=O)O; NMeV = CN[C@H](C(=O)O)C(C)C
// classify into TRUE (active), FALSE (inactive)

Here are 6 compounds together with their reported answers.
[[record]]
compound = "CC[C@H](C)[C@@H]1OC(=O)[C@@H](C)[C@@H](CC)NC(=O)[C@H](C)NC(=O)C(C)(C)C(=O)[C@H](C)NC(=O)[C@H](Cc2ccc(OC)cc2)N(C)C(=O)[C@H](C(C)C)N(C)C(=O)CNC(=O)[C@H](CC(C)C)N(C)C(=O)CNC1=O (cyclo(A[X56]G[NMeL]G[NMeV][NMeY](Me)[X32]))"
classification = "TRUE"

[[record]]
compound = "C1COCCOCCOCCOCCO1.CC(=O)[CH-]C(C)=O.CC(=O)[CH-]C(C)=O.CC(=O)[CH-]C(C)=O.[V]"
classification = "FALSE"

[[record]]
compound = "COC1=C(Br)C(=O)C2=C(C1=O)C1C3=C(C(=O)C=CC3=O)C2c2ccccc21 (configuration not stated)"
classification = "FALSE"

[[record]]
compound = "OCc1ccc(N(CCN2CCCC2)Cc2ccc(F)cc2)cc1Cl"
classification = "FALSE"

[[record]]
compound = "C=C1C(=O)O[C@H]2[C@H]1CC/C(COC(=O)c1ccccc1)=C\\CC[C@@]1(C)O[C@@H]21"
classification = "FALSE"

[[record]]
compound = "CN(C)CCCn1c2nc(=O)[nH]c(=O)c-2nc2cc(Cl)c(Cl)cc21"
classification = "FALSE"


Could you now look at the following compound, please?
Outcome logged for C[C@H](N)C(=O)N1C[C@H](CCCB(O)O)[C@](N)(C(=O)O)C1 in this assay: FALSE

---

- Test system: 786-0 renal
- method_summary: NCI tumour cell line growth inhibition, 48 h; in the data active = GI50 below about 0.43 µM; inactive = the rest
*1 amine or outer side, *2 acyl side, *3 side chain or, on linkers, in order; H or OH if unused. Where a SMILES comes first, the peptide text is derived from it. [ ]: non-standard residue; d: D form. X56 = CC[C@H](C)[C@H](OC(=O)[C@@H](C)[C@@H](CC)N[*:1])C(=O)[*:2]; X32 = C[C@H](N[*:1])C(=O)C(C)(C)C(=O)[*:2]; NMeY = CN[C@@H](Cc1ccc(O)cc1)C(=O)O; NMeL = CN[C@@H](CC(C)C)C(=O)O; NMeV = CN[C@H](C(=O)O)C(C)C
// classify into active, inactive

[[record]]
compound = "N#Cc1c(N)nc(N2CCOCC2)c(C#N)c1-c1ccccc1Cl"
tested_on = "786-0 renal"
classification = "inactive"

[[record]]
compound = "CCSc1nnc(-c2ccc3ccccc3c2O)n1-c1ccc(Cl)cc1"
tested_on = "786-0 renal"
classification = "inactive"

[[record]]
compound = "COc1ccc(N(C)c2c3ccccc3nc3[nH]c4ccccc4c23)cc1"
tested_on = "786-0 renal"
classification = "inactive"

[[record]]
compound = "COc1ccc(N(/C=C/C(=O)C(F)(F)F)CC(=O)c2ccc(Cl)c(Cl)c2)cc1"
tested_on = "786-0 renal"
classification = "inactive"

[[record]]
compound = "Nc1ncnc2c1cnn2Cc1ccc(Cl)cc1"
tested_on = "786-0 renal"
classification = "inactive"

[[record]]
compound = "CC[C@H](C)[C@@H]1OC(=O)[C@@H](C)[C@@H](CC)NC(=O)[C@H](C)NC(=O)C(C)(C)C(=O)[C@H](C)NC(=O)[C@H](Cc2ccc(OC)cc2)N(C)C(=O)[C@H](C(C)C)N(C)C(=O)CNC(=O)[C@H](CC(C)C)N(C)C(=O)CNC1=O (cyclo(A[X56]G[NMeL]G[NMeV][NMeY](Me)[X32]))"
tested_on = "786-0 renal"
classification = "active"

[[record]]
compound = "OCc1ccc(N(CCN2CCCC2)Cc2ccc(F)cc2)cc1Cl"
tested_on = "786-0 renal"
classification = "inactive"

[[record]]
compound = "CSc1ncnc2c1CCN2"
tested_on = "786-0 renal"
classification = "inactive"


Could you now look at the following compound, please?
Outcome logged for Fc1ccc2[nH]cc(SSc3c[nH]c4ccc(F)cc34)c2c1 in this assay: inactive

---

- Tested on: SF-539 CNS
- method_summary: NCI tumour cell line growth inhibition, 48 h; in the data active = GI50 below about 0.43 µM; inactive = the rest
// classify into Y for active, N for inactive

[[record]]
molecule = "COc1ccc(-c2csc(NC(=O)c3cc(O)c(O)c(O)c3)n2)cc1"
classification = "N"

[[record]]
molecule = "N#Cc1ccc2c(c1)C(=O)c1c-2n(CCCN)c(=O)c2cc([N+](=O)[O-])ccc12"
classification = "Y"

[[record]]
molecule = "CCOC(=O)c1cc(C(=O)c2cc(OC)c(OC)c(OC)c2)n2ccccc12"
classification = "Y"

[[record]]
molecule = "COc1ccc2c(c1)/C(=C/c1cc(OC)c(OC)c(OC)c1)C(=O)N2C"
classification = "N"

[[record]]
molecule = "Cn1c(=O)c(Oc2ccccc2)cc2cnc(NC3CCOCC3)nc21"
classification = "N"


Outcome logged for NC(=O)c1ccc2nc3c(n2c1)C(=O)C(=O)c1ccccc1-3 in this assay: N

Now give it for COc1cc(OC)c(C(=O)/C=C/c2cccc(OC(C)=O)c2)cc1CC=C(C)C too. N

Now give it for COc1ccc2c(c1)C1(C(=O)N2)C(C#N)=C(c2ccccc2)Nc2c1c(-c1ccccc1)nn2-c1ccccc1 (stereo not drawn) too. N

---

Recorded TGI values for a group of compounds are listed next.
- Test system: SW-620 colon
- method_summary: NCI tumour cell line growth inhibition, 48 h

Guide cases for TGI, answers given:
[[record]]
compound = "COC(=O)C1C(OCc2ccccc2)C2CCC1(OC)C=C2C (configuration not stated)"
measured_property = "TGI"
value_observed = "> 100 µM"

[[record]]
compound = "CCOC(=O)C(C(=O)OCC)=C1NC2(c3ccccc3Nc3ccc(C)cc32)C(C(=O)OC)S1 (configuration not stated)"
measured_property = "TGI"
value_observed = "> 100 µM"


What TGI value was documented for this compound, Cc1cccc(C)c1NC(=O)CCc1n[nH]c(=S)o1 ? 36.2 µM

Now give it for Cc1[nH]nc2c1N=C(c1ccccc1Cl)c1cc([N+](=O)[O-])ccc1N2 too. > 25 µM

Now give it for c1ccc(C2=NCCc3cc4c(cc32)OCO4)cc1 too. > 100 µM

Now give it for N#Cc1c(N)nc(N2CCOCC2)c(C#N)c1-c1ccccc1Cl too. > 100 µM

Now give it for Clc1c(C(Cl)(Cl)Cl)nsc1N1CCCCC1 too. > 100 µM
